Taken from ChEMBL document CHEMBL1149447.

# assay.target: Integrin alpha-V/beta-6 (Homo sapiens, UniProt P06756+P18564)
# Sequence (P18564 22-788 limits assumed, one chain of several): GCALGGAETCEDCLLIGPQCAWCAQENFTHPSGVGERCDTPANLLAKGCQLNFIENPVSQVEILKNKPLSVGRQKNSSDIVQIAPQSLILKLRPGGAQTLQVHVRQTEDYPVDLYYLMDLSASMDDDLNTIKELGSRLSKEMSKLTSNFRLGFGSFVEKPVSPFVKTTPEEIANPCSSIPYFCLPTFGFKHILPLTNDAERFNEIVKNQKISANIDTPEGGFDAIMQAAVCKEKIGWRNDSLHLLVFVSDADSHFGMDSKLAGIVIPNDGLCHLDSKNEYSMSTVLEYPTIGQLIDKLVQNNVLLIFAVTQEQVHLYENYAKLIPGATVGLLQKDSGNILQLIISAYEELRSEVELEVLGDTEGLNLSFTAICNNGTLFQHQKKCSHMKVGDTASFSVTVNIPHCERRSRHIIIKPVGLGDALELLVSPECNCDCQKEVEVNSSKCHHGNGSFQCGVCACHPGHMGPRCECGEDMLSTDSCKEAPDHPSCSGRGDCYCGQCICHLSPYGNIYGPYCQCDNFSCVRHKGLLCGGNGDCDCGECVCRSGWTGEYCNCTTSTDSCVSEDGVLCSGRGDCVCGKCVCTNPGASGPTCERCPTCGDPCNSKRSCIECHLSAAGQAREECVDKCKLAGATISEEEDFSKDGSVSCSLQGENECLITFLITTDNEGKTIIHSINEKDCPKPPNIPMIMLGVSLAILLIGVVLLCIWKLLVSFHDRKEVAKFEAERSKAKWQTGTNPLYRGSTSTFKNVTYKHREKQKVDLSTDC
# protocol.summary: Inhibition of Integrin alphaV Beta6 receptor in HT29 cells by solid-phase receptor binding assay
property.label: pIC50
Lab note — pIC50 values are minus log10 of concentrations in M.

O=C(O)CC(Cc1csc(CCCc2ccc3c(n2)NCCC3)n1)c1ccc(Cl)cc1 (stereo not drawn) = 5.61

Field: next compound
Requested field: pIC50. Item: O=C(O)CC(Cc1csc(CCCc2ccc3c(n2)NCCC3)n1)c1cnc(-c2ccccc2)s1 (stereo not drawn) 5.57

----------
Property: clearance; scope: individual compounds
# protocol.summary: Clearance in rat
# Assay type: ADME, organism-based
# assay.context: in vivo
Just the number in mL/min/kg, nothing appended.

Requested field: clearance. Item: COc1cc(OC)cc(C(CC(=O)O)Cc2csc(CCCc3ccc4c(n3)NCCC4)n2)c1 (configuration not stated) 7.3

Try this compound too: COc1ccc(C(CC(=O)O)Cc2csc(CCCc3ccc4c(n3)NCCC4)n2)cn1 (configuration not stated) 12.3

Try this compound too: COc1ccc(C(CC(=O)O)Cc2csc(CCCc3ccc4c(n3)NCCC4)n2)cc1F (configuration not stated) 9

Try this compound too: O=C(O)CC(Cc1csc(CCCc2ccc3c(n2)NCCC3)n1)c1ccc2c(c1)OCO2 (configuration not stated) 3.3

Try this compound too: COCc1ncc(C(CC(=O)O)Cc2csc(CCCc3ccc4c(n3)NCCC4)n2)s1 (configuration not stated) 8.7

Try this compound too: O=C(O)CC(Cc1nc(CCCc2ccc3c(n2)NCCC3)no1)c1ccc2c(c1)OCO2 (racemic) 10.9

Try this compound too: O=C(O)CC(Cc1csc(CCCc2ccc3c(n2)NCCC3)n1)c1cnc(C2CC2)s1 (configuration not stated) 6.8

----------
# assay.target: Integrin alpha-V/beta-3 (Homo sapiens, UniProt P05106+P06756)
# Sequence (P05106 27-788 limits assumed): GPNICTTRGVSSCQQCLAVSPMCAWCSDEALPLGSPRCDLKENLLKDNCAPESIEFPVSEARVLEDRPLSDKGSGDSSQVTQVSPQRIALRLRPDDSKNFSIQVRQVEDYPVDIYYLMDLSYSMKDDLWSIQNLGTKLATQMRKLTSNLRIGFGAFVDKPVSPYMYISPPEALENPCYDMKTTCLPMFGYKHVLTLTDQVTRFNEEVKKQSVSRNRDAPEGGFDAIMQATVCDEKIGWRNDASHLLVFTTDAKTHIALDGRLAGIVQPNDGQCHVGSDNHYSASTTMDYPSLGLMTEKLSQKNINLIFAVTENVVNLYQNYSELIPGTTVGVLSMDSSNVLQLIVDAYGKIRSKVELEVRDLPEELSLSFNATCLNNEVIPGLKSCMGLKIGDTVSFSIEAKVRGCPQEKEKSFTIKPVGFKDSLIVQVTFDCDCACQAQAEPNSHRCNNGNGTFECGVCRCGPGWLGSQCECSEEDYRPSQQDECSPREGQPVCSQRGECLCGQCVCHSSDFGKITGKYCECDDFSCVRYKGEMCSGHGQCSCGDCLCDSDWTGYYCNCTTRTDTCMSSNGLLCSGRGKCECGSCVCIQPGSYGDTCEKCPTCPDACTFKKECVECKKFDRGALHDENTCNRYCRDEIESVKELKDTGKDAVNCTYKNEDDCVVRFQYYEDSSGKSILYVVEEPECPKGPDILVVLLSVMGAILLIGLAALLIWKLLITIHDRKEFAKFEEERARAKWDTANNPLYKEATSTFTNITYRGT
# Sequence (P06756 31-889 limits assumed): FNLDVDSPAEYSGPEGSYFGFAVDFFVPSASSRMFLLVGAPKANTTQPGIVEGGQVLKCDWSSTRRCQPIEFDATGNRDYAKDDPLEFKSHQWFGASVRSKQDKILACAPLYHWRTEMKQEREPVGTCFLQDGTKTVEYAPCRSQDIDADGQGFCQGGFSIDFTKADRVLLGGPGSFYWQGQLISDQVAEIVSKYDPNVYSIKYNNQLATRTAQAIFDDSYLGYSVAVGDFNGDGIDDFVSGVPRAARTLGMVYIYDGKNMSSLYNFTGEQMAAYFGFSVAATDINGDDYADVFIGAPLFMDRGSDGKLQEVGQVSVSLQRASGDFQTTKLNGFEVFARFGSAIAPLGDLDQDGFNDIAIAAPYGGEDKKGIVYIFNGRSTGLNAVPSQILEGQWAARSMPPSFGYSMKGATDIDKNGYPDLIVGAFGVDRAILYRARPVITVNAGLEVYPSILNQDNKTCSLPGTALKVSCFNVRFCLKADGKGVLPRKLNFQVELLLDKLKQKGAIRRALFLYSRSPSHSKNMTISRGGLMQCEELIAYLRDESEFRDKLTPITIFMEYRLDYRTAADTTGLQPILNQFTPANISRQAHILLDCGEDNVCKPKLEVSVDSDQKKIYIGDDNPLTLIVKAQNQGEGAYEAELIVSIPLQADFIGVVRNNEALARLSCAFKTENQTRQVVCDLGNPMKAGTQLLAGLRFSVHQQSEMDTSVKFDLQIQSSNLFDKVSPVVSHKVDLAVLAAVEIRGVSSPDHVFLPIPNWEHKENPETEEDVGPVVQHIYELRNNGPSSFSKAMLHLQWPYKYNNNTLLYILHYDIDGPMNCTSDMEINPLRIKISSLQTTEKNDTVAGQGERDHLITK
# Sequence (P06756 891-1048 limits assumed): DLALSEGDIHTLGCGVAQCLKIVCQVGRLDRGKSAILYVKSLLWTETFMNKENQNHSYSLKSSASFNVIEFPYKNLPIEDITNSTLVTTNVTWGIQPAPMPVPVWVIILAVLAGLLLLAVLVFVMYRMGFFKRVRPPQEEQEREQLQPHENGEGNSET
# protocol.summary: Inhibition of Integrin alphaV Beta3 receptor by solid-phase receptor binding assay
property.label: pIC50
Lab note — pIC50 values are minus log10 of concentrations in M.

Below, each entry is followed by its recorded pIC50 result.
Cc1ccc(C(CC(=O)O)Cc2csc(CCCc3ccc4c(n3)NCCC4)n2)cc1 (stereo unspecified) = 7.96
COc1ccc(C(CC(=O)O)Cc2csc(CCCCNc3cc(N4CCCC4)ccn3)n2)cn1 (stereo unspecified) = 8.52
O=C(O)CC(Cc1csc(CCCc2ccc3c(n2)NCCC3)n1)c1cnc(-c2ccc(Cl)cc2)s1 (stereo unspecified) = 8.68

Requested field: pIC50. Item: COc1cc(OC)cc(C(CC(=O)O)Cc2csc(CCCc3ccc4c(n3)NCCC4)n2)c1 (stereo unspecified) 8.81

Try this compound too: O=C(O)CC(Cc1csc(CCCc2ccc3c(n2)NCCC3)n1)c1ccc2c(c1)OCO2 (stereo unspecified) 8.93

Try this compound too: COc1ccc(C(CC(=O)O)Cc2csc(CCCc3ccc4c(n3)NCCC4)n2)cc1F (stereo unspecified) 8.66

Try this compound too: O=C(O)CC(Cc1csc(CCCc2ccc3c(n2)NCCC3)n1)c1cnc(C2CC2)s1 (stereo unspecified) 8.91

Try this compound too: O=C(O)C[C@H](Cc1csc(CCCCNc2cc(N3CCCC3)ccn2)n1)c1ccc2c(c1)OCO2 8.90

Try this compound too: CN1CCNc2nc(CCCc3nc(CC(CC(=O)O)c4ccc5c(c4)OCO5)cs3)ccc21 (stereo unspecified) 9.21

Try this compound too: O=C(O)CC(Cc1csc(CCCc2ccc3c(n2)NCCC3)n1)c1ccc(F)c(F)c1 (stereo unspecified) 8.46

Try this compound too: O=C(O)CC(Cc1csc(CCCc2ccc3c(n2)NCCC3)n1)c1cnc(-c2ccccc2)s1 (stereo unspecified) 8.75

Try this compound too: COc1ccc(C(CC(=O)O)Cc2csc(CCCc3ccc4c(n3)NCCC4)n2)cn1 (stereo unspecified) 8.91

Try this compound too: O=C(O)C[C@H](Cc1csc(CCCCNc2cc(N3CCSCC3)ccn2)n1)c1ccc2c(c1)OCO2 8.77

Try this compound too: O=C(O)CC(Cc1csc(CCCc2ccc3c(n2)NCCC3)n1)c1cccc(F)c1 (stereo unspecified) 8.55

Try this compound too: COc1ccc(C(CC(=O)O)Cc2csc(CCCc3ccc4c(n3)NCCN4C)n2)cn1 (stereo unspecified) 8.91

Try this compound too: O=C(O)CC(Cc1csc(CCCc2ccc3c(n2)NCCC3)n1)c1ccc(Cl)cc1 (stereo unspecified) 8.42

Try this compound too: COc1ccc(C(CC(=O)O)Cc2csc(CCCCNc3cc(N4CCOCC4)ccn3)n2)cn1 (stereo unspecified) 8.45

Try this compound too: COc1ccc(C(CC(=O)O)Cc2csc(CCCCNc3cc(N4CCSCC4)ccn3)n2)cn1 (stereo unspecified) 8.43

Try this compound too: O=C(O)C[C@H](Cc1csc(CCCCNc2cc(N3CCOCC3)ccn2)n1)c1ccc2c(c1)OCO2 8.81

Try this compound too: Cc1nc2cc(C(CC(=O)O)Cc3csc(CCCc4ccc5c(n4)NCCC5)n3)ccc2s1 (stereo unspecified) 8.55

Try this compound too: COCc1ncc(C(CC(=O)O)Cc2csc(CCCc3ccc4c(n3)NCCC4)n2)s1 (stereo unspecified) 8.92
